tested on: U266; assay: MTS cell viability assay; assay type: cell-based; settings: Homo sapiens, U-266; U266, 48h, Fig. 6E; read-out: IC50, Survival (%)
REPORTED METRIC: IC50
// return the numeric value with its unit appended

Record CCN(CC)CCCC(C)Nc1ccnc2cc(Cl)ccc12 (stereo not shown) . Reported IC50: 55.1 µM

====

Target: ULK2 (Homo sapiens, UniProt Q8IYT8)
Construct: purchased Reaction Biology Corporation
Sequence (Q8IYT8 whole entry): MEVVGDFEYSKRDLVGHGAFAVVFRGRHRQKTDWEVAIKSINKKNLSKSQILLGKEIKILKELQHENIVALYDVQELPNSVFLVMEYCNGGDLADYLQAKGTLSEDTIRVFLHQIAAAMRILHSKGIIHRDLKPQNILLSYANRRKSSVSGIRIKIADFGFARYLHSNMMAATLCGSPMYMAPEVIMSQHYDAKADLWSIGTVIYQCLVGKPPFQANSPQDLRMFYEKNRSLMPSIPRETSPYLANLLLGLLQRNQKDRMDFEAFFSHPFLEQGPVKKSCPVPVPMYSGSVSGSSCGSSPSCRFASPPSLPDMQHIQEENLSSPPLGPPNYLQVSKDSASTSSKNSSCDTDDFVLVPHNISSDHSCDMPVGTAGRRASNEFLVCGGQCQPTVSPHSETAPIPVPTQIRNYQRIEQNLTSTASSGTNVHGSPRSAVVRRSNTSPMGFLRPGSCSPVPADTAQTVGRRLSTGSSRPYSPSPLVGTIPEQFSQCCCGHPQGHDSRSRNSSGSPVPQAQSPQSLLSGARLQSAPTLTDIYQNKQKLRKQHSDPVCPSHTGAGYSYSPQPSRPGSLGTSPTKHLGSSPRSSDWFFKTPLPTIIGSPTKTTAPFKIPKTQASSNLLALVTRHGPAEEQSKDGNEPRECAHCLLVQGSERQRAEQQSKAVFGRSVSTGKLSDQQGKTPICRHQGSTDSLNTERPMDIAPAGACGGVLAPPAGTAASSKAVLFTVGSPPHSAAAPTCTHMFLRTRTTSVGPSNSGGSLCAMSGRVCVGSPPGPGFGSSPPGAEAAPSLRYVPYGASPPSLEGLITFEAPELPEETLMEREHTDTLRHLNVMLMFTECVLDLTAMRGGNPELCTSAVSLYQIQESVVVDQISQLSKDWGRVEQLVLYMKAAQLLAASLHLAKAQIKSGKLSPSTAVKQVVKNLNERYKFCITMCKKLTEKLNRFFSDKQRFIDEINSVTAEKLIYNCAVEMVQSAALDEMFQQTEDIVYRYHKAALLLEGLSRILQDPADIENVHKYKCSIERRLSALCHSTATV
Assay: Kinase profiling assay (Reaction Biology), 10-dose IC50, 10 μM ATP
Format: biochemical
Details: NA = no activity
Protocol: 310 and refinement were performed with COOT [14] and Phenix.Refine to obtain a clear electron 311 density map (1Fo-Fc) for compound MA9-060, which was built into the structure near the end of 312 iterative cycles of model building and refinement. Crystal parameters, data collection statistics and 313 refinement statistics are summarized in Supplementary Fig. 4D and deposited in the protein 314 databank with PDB code 8V1M. […] 333 evaluated against Bromodomain 1 by Reaction Biology Corporation. […]
REPORTED METRIC: IC50 (nM)
The response must be a number in nM with no trailing unit.

Entry Cc1cnc(Nc2ccc(C3CCN(C)CC3)c(F)c2)nc1Nc1ccc(Cl)c(NS(=O)(=O)C(C)(C)C)c1 [MA9060] , IC50 reported as 4300

====

biological target: BRD4-1 (Homo sapiens, UniProt O60885); construct: evaluated against Bromodomain 1 by Reaction Biology Corporation; purchased Reaction Biology Corporation; assay: Bromodomain profiling assay, AlphaScreen binding, H4/4Ac ligand; details: NA = no activity
REPORTED METRIC: IC50 (nM)
# output: bare number, implied unit nM

Just so you know, measured IC50 for Cc1cnc(Nc2ccc(C3CCN(C)CC3)c(F)c2)nc1Nc1ccc(Cl)c(NS(=O)(=O)C(C)(C)C)c1 came out at 3.8

====

Target: UniProt:O75385
Sequence (O75385 1-1050): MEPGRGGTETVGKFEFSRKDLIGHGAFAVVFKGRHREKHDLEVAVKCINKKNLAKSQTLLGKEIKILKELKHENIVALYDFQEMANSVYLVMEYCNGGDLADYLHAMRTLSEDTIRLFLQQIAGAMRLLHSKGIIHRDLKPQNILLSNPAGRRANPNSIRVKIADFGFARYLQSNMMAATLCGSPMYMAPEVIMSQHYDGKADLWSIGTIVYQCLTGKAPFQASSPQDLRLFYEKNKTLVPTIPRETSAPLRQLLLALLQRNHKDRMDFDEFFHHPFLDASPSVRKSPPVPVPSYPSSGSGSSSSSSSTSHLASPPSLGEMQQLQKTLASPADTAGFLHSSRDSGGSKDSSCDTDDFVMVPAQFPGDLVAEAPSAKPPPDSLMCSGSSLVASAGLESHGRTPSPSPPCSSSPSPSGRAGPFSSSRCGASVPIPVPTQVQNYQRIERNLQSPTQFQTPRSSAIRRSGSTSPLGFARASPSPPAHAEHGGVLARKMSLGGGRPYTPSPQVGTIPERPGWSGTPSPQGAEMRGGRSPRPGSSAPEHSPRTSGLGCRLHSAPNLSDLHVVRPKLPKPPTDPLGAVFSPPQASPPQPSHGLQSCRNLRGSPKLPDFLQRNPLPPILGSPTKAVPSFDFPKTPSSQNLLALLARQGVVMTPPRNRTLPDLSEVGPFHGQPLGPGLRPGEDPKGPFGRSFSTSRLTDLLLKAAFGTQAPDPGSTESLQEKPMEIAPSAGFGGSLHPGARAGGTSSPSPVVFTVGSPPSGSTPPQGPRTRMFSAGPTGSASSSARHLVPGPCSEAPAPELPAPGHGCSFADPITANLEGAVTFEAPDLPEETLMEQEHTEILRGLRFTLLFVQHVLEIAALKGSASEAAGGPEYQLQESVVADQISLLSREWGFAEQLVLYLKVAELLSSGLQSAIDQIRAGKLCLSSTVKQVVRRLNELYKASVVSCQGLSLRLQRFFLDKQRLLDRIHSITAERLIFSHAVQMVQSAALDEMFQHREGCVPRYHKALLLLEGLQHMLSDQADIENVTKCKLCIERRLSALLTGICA
REPORTED METRIC: IC50
Please provide the amount together with its unit, number first.

In plain terms, Cc1cnc(Nc2ccc(C3CCN(C)CC3)c(F)c2)nc1Nc1ccc(Cl)c(NS(=O)(=O)C(C)(C)C)c1 has a documented IC50 of 1710 nM
